Molecular target: T1, human serum albumin (human, UniProt P02768 25-609)
T1 construct: Bought protein; also called HSA
Assay: SPR, pH 7.4, immobilized HSA density ~500 RU
experimentalReadout: koff (s⁻¹)
Give bare numbers, in s⁻¹.

[[record]]
binder = "TPP-66094 (VHH, also called T023500029-35GS-ALB23002-A; T023500029-35GS-Alb223) EVQLVESGGGVVQPGDSLRLSCAASGGTFSTYVMGWFRQAPGKEREFVSAISQNSIHTYYANSVKGRFTISRDNSKNTVYLQLNSLRPEDTALYYCAASRFTSWYTADYEYDYWGQGTLVTVSSGGGGSGGGGSGGGGSGGGGSGGGGSGGGGSGGGGSEVQLVESGGGVVQPGGSLRLSCAASGFTFRSFGMSWVRQAPGKGPEWVSSISGSGSDTLYADSVKGRFTISRDNSKNTLYLQMNSLRPEDTALYYCTIGGSLSRSSQGTLVTVSSA"
testresult = "9.3e-05"

[[record]]
binder = "TPP-66097 (other, also called ABD-35GS-ALB23002-A; ABD-35GS-Alb223) LKEAKEKAIEELKKAGITSDYYFDLINKAKTVEGVNALKDEILKAGGGGSGGGGSGGGGSGGGGSGGGGSGGGGSGGGGSEVQLVESGGGVVQPGGSLRLSCAASGFTFRSFGMSWVRQAPGKGPEWVSSISGSGSDTLYADSVKGRFTISRDNSKNTLYLQMNSLRPEDTALYYCTIGGSLSRSSQGTLVTVSSA"
testresult = 0.00012

[[record]]
binder = "TPP-66095 (other, also called DARPIN-35GS-ALB23002-A; DARPIN-35GS-Alb223) DLGKKLLEAARAGQDDEVRELLKAGADVNAKDYFSHTPLHLAARNGHLKIVEVLLKAGADVNAKDFAGKTPLHLAANEGHLEIVEVLLKAGADVNAQDIFGKTPADIAADAGHEDIAEVLQKAAGGGGSGGGGSGGGGSGGGGSGGGGSGGGGSGGGGSEVQLVESGGGVVQPGGSLRLSCAASGFTFRSFGMSWVRQAPGKGPEWVSSISGSGSDTLYADSVKGRFTISRDNSKNTLYLQMNSLRPEDTALYYCTIGGSLSRSSQGTLVTVSSA"
testresult = 0.00038

[[record]]
binder = "IRR00164 (VHH, also called CNB-9GS-CNB-9GS-CNB-9GS-ALB23002-A; CNB-CNB-CNB-Alb223) VHH: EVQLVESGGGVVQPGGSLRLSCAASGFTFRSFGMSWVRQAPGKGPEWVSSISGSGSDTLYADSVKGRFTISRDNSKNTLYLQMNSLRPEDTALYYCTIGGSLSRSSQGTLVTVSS"
testresult = 0.002


Switching to the query record.
Query :: Give its koff value. Item: TPP-66093 (VHH, also called ALBX00002-35GS-ALB23002-A; ALBX00002-35GS-Alb223) EVQLVESGGGVVQPGGSLRLSCAASGLTFSSYAMGWFRQAPGKERERVVSISRGGGYTYYADSVKGRFTISRDNSKNTVYLQMNSLRPEDTALYYCAAARYWATGSEYEFDYWGQGTLVTVSSGGGGSGGGGSGGGGSGGGGSGGGGSGGGGSGGGGSEVQLVESGGGVVQPGGSLRLSCAASGFTFRSFGMSWVRQAPGKGPEWVSSISGSGSDTLYADSVKGRFTISRDNSKNTLYLQMNSLRPEDTALYYCTIGGSLSRSSQGTLVTVSSA
Result :: 8.6e-05
